All figures here come from paper PMC10287910.

- System: ParA2 K124R (Vibrio cholerae)
- Assay info: EMSA

{"columns": ["Seq string", "Tested system", "Kd"],
 "data": [
  ["CGAGGTCGACGGTATCGATAAGCTTGATATCGAATTCCTGCAGCCCGGGGGATCCACTAGTTCTAGAGC (double strand) [Cy3-69 bp nsDNA]", "ParA2 K124R (Vibrio cholerae)", "0.0471 µM"]
]}

* * *

- System: ParA2 (Vibrio cholerae)
- Assay info: EMSA
pKd: −log10 of the molar value.

{"columns": ["Seq string", "pKd"],
 "data": [
  ["CGAGGTCGACGGTATCGATAAGCTTGATATCGAATTCCTGCAGCCCGGGGGATCCACTAGTTCTAGAGC (double strand) [Cy3-69 bp nsDNA]", 6.00]
]}
